# Test system: K98450-129-R-PDC multicell spheroids, viability;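 note: spheroids exposed to agents for seven days before read-out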
# assaySummary: Anticancer human tumor K98450-129-R-PDC patient-derived colon adenocarcinoma cell line growth inhibition [PI3K]
# settings: second compound 3.16 µM; first compound 3.16 µM; hits give low values
This listing pairs compounds with measured viability, T/C.
API: value field is a number in %; no unit string.

{"columns": ["compound", "recordedMetric", "val"],
 "data": [
  ["CCCS(=O)(=O)Nc1ccc(F)c(C(=O)c2c[nH]c3ncc(-c4ccc(Cl)cc4)cc23)c1F + Cc1nc(NC(=O)N2CCCC2C(N)=O)sc1-c1ccnc(C(C)(C)C(F)(F)F)c1", "viability, T/C", 88.8],
  ["CCCS(=O)(=O)Nc1ccc(F)c(C(=O)c2c[nH]c3ncc(-c4ccc(Cl)cc4)cc23)c1F + CC(Nc1ncnc2nc[nH]c12)c1cc2cccc(Cl)c2c(=O)n1-c1ccccc1", "viability, T/C", 114],
  ["CC(C)NCC(C(=O)N1CCN(c2ncnc3c2C(C)CC3O)CC1)c1ccc(Cl)cc1 (stereo unspecified) + Cc1nc(NC(=O)N2CCCC2C(N)=O)sc1-c1ccnc(C(C)(C)C(F)(F)F)c1", "viability, T/C", 95.6],
  ["C=CC(=O)N1CCN(c2nc(=O)n(-c3c(C)ccnc3C(C)C)c3nc(-c4c(O)cccc4F)c(F)cc23)C(C)C1 (stereo unspecified) + Cc1nc(NC(=O)N2CCCC2C(N)=O)sc1-c1ccnc(C(C)(C)C(F)(F)F)c1", "viability, T/C", 29.1],
  ["C[C@@H](NC(=O)c1ncnc(N)c1Cl)c1ncc(C(=O)Nc2cc(C(F)(F)F)c(Cl)cn2)s1 + Cc1nc(NC(=O)N2CCCC2C(N)=O)sc1-c1ccnc(C(C)(C)C(F)(F)F)c1", "viability, T/C", 95.8],
  ["CC(Cn1ccc(-c2ccc(C#N)c(Cl)c2)n1)NC(=O)c1cc(C(C)O)[nH]n1 (stereo unspecified) + CC(Nc1ncnc2nc[nH]c12)c1cc2cccc(Cl)c2c(=O)n1-c1ccccc1", "viability, T/C", 103]
]}

QUERY: Find the recorded viability, T/C belonging to CC1(C)CCC(CN2CCN(c3ccc(C(=O)NS(=O)(=O)c4ccc(NCC5CCOCC5)c([N+](=O)[O-])c4)c(Oc4cnc5[nH]ccc5c4)c3)CC2)=C(c2ccc(Cl)cc2)C1 + CC(Nc1ncnc2nc[nH]c12)c1cc2cccc(Cl)c2c(=O)n1-c1ccccc1 and report it.
RESULT: 95.8

QUERY: Find the recorded viability, T/C belonging to C[C@@H](NC(=O)c1ncnc(N)c1Cl)c1ncc(C(=O)Nc2cc(C(F)(F)F)c(Cl)cn2)s1 + CC(Nc1ncnc2nc[nH]c12)c1cc2cccc(Cl)c2c(=O)n1-c1ccccc1 and report it.
RESULT: 123

QUERY: Find the recorded viability, T/C belonging to C#Cc1c(F)ccc2cc(O)cc(-c3ncc4c(N5CC6CCC(C5)N6)nc(OCC56CCCN5CC(F)C6)nc4c3F)c12 (stereo unspecified) + Cc1nc(NC(=O)N2CCCC2C(N)=O)sc1-c1ccnc(C(C)(C)C(F)(F)F)c1 and report it.
RESULT: 77.4

QUERY: Find the recorded viability, T/C belonging to CNC(=O)c1ccc(N2C(=S)N(c3ccc(C#N)c(C(F)(F)F)c3)C(=O)C2(C)C)cc1F + Cc1nc(NC(=O)N2CCCC2C(N)=O)sc1-c1ccnc(C(C)(C)C(F)(F)F)c1 and report it.
RESULT: 92

QUERY: Find the recorded viability, T/C belonging to CC1(C)CCC(Nc2ncc(C(F)(F)F)c(-c3c[nH]c4c(P(C)(C)=O)c(C#N)ccc34)n2)CN1 (stereo unspecified) + Cc1nc(NC(=O)N2CCCC2C(N)=O)sc1-c1ccnc(C(C)(C)C(F)(F)F)c1 and report it.
RESULT: 67.4
